Molecular target: Human full-length diacylglycerol:acylCoA acyltransferase 1 (DGAT-1) (Homo sapiens, UniProt O75907)
Assay: In vitro assay for inhibition of DGAT-1 activity (DGAT 1 Reduced Microsome Multidose Assay)
Conditions: Trial 3 Human IC50, Trial 3: as Trial 2 except compounds serially diluted in a different laboratory; average where n > 1
Here the recorded IC50 is given for each entry.
Reported metric: IC50 (µM)

{"Compound": "Cc1ncoc1C(=O)N1CCC(c2ccc(N3CCOc4ncnc(N)c4C3=O)cc2)CC1 [Example 7K]", "Reported metric": "IC50", "Unit text": "µM", "Observed value": 0.258}
{"Compound": "Nc1ncnc2c1C(=O)N(c1ccc(C3CCN(C(=O)Cn4cccn4)CC3)cc1)CCO2 [Example 7AC]", "Reported metric": "IC50", "Unit text": "µM", "Observed value": 0.113}
{"Compound": "Nc1ncnc2c1C(=O)N(c1ccc(C3CCN(C(=O)Cc4ccccc4)CC3)cc1)CCO2 [Example 7Y]", "Reported metric": "IC50", "Unit text": "µM", "Observed value": 0.0986}
{"Compound": "C[C@@H]1CN(c2ccc(C(C)(C)C)cc2)C(=O)c2c(N)ncnc2O1 [Example 1I]", "Reported metric": "IC50", "Unit text": "µM", "Observed value": 0.0337}
{"Compound": "C[C@H](O)CC(=O)N1CCC(c2ccc(N3CCOc4ncnc(N)c4C3=O)cc2)CC1 [Example 7D]", "Reported metric": "IC50", "Unit text": "µM", "Observed value": 0.267}
{"Compound": "Nc1ncnc2c1C(=O)N(c1ccc(C3CCN(C(=O)CC4CCCC4)CC3)cc1)CCO2 [Example 7AE]", "Reported metric": "IC50", "Unit text": "µM", "Observed value": 0.0923}
{"Compound": "CC(C)[C@H](O)C(=O)N1CCC(c2ccc(N3CCOc4ncnc(N)c4C3=O)cc2)CC1 [Example 7U]", "Reported metric": "IC50", "Unit text": "µM", "Observed value": 0.297}
{"Compound": "Cc1ocnc1C(=O)N1CCC(c2ccc(N3CCOc4ncnc(N)c4C3=O)cc2)CC1 [Example 7G]", "Reported metric": "IC50", "Unit text": "µM", "Observed value": 0.29}
{"Compound": "Nc1ncnc2c1C(=O)N(c1ccc(C3CCN(C(=O)CC4CCOC4)CC3)cc1)CCO2 (centres unmarked) [Example 7M]", "Reported metric": "IC50", "Unit text": "µM", "Observed value": 0.18}
{"Compound": "Nc1ncnc2c1C(=O)N(c1ccc(C3CCN(C(=O)CC4CCCOC4)CC3)cc1)CCO2 (centres unmarked) [Example 7E]", "Reported metric": "IC50", "Unit text": "µM", "Observed value": 0.3}
{"Compound": "CC(C)(C#N)c1ccc(N2CCOc3ncnc(N)c3C2=O)cc1 [Example 1F]", "Reported metric": "IC50", "Unit text": "µM", "Observed value": 2.66}
{"Compound": "Nc1ncnc2c1C(=O)N(c1ccc(C3CCN(C(=O)CC4CCOCC4)CC3)cc1)CCO2 [Example 7O]", "Reported metric": "IC50", "Unit text": "µM", "Observed value": 0.374}
{"Compound": "CC(C)c1ccc(N2CCOc3ncnc(N)c3C2=O)cc1 [Example 1H]", "Reported metric": "IC50", "Unit text": "µM", "Observed value": 0.0263}
{"Compound": "Nc1ncnc2c1C(=O)N(c1ccc([C@H]3CC[C@H](CCO)CC3)cc1)CCO2 [Example 1E]", "Reported metric": "IC50", "Unit text": "µM", "Observed value": 0.00975}
{"Compound": "CC(C)(C)OC(=O)N1CCC(c2ccc(N3CCOc4ncnc(N)c4C3=O)cc2)CC1 [Example 7B]", "Reported metric": "IC50", "Unit text": "µM", "Observed value": 0.03}
{"Compound": "Nc1ncnc2c1C(=O)N(c1ccc(C3CCN(C(=O)CC4CCCO4)CC3)cc1)CCO2 (centres unmarked) [Example 7R]", "Reported metric": "IC50", "Unit text": "µM", "Observed value": 0.17}
{"Compound": "Nc1ncnc2c1C(=O)N(c1ccc(C3CCN(C(=O)C4CCCOC4)CC3)cc1)CCO2 (centres unmarked) [Example 7Z]", "Reported metric": "IC50", "Unit text": "µM", "Observed value": 0.134}

###

Target: Human full-length diacylglycerol:acylCoA acyltransferase 1 (DGAT-1) (Homo sapiens, UniProt O75907)
Test: In vitro assay for inhibition of DGAT-1 activity (DGAT 1 Reduced Microsome Multidose Assay)
Settings: Trial 4 Human IC50, Trial 4: eight concentrations of inhibitor, microsomes 5 μg/mL; average where n > 1

{"Molecule": "CCC(CC)(OC)c1ccc(N2C[C@@H](C)Oc3ncnc(N)c3C2=O)cc1", "IC50 (nM)": 15.5}
{"Molecule": "C[C@@H]1CN(c2ccc(C3(C(N)=O)CCCCC3)cc2)C(=O)c2c(N)ncnc2O1", "IC50 (nM)": 82.4}
{"Molecule": "C[C@@H]1CN(c2ccc(C(C)(C)C)cc2)C(=O)c2c(N)ncnc2O1", "IC50 (nM)": 16.3}
{"Molecule": "CC(C)c1ccc(N2C[C@@H](C)Oc3ncnc(N)c3C2=O)cc1", "IC50 (nM)": 17.6}
{"Molecule": "CC(C)Cc1ccc(N2C[C@@H](C)Oc3ncnc(N)c3C2=O)cc1", "IC50 (nM)": 6.78}
{"Molecule": "C[C@@H]1CN(c2ccc(C(C)(C)C(F)(F)F)cc2)C(=O)c2c(N)ncnc2O1", "IC50 (nM)": 14.3}
{"Molecule": "C[C@@H]1CN(c2ccc(C(O)C(F)(F)F)cc2)C(=O)c2c(N)ncnc2O1 (stereo partly shown)", "IC50 (nM)": 37.7}
{"Molecule": "C[C@@H]1CN(c2ccc([C@H]3C[C@@H](O)C3)cc2)C(=O)c2c(N)ncnc2O1", "IC50 (nM)": 76.5}
{"Molecule": "COC(=O)c1ccc(N2C[C@@H](C)Oc3ncnc(N)c3C2=O)cc1", "IC50 (nM)": 161}
{"Molecule": "C[C@@H]1CN(c2ccc(C3(C(N)=O)CCC3)cc2)C(=O)c2c(N)ncnc2O1", "IC50 (nM)": 78.2}
{"Molecule": "C[C@@H]1CN(c2ccc(C3CC3)cc2)C(=O)c2c(N)ncnc2O1", "IC50 (nM)": 19.9}
{"Molecule": "C[C@@H]1CN(c2ccc(CC(C)(C)O)cc2)C(=O)c2c(N)ncnc2O1", "IC50 (nM)": 104}
{"Molecule": "C[C@@H]1CN(c2ccc(CC(N)=O)cc2)C(=O)c2c(N)ncnc2O1", "IC50 (nM)": 313}
{"Molecule": "C[C@@H]1CN(c2ccc([C@@H](O)C(C)(C)C)cc2)C(=O)c2c(N)ncnc2O1", "IC50 (nM)": 55.4}
{"Molecule": "CC(O)c1ccc(N2C[C@@H](C)Oc3ncnc(N)c3C2=O)cc1 (stereo partly shown)", "IC50 (nM)": 146}
{"Molecule": "CCC(O)(CC)c1ccc(N2C[C@@H](C)Oc3ncnc(N)c3C2=O)cc1", "IC50 (nM)": 29.4}

###

Biological target: Human full-length diacylglycerol:acylCoA acyltransferase 1 (DGAT-1) (Homo sapiens)
Sequence (O75907 1-488): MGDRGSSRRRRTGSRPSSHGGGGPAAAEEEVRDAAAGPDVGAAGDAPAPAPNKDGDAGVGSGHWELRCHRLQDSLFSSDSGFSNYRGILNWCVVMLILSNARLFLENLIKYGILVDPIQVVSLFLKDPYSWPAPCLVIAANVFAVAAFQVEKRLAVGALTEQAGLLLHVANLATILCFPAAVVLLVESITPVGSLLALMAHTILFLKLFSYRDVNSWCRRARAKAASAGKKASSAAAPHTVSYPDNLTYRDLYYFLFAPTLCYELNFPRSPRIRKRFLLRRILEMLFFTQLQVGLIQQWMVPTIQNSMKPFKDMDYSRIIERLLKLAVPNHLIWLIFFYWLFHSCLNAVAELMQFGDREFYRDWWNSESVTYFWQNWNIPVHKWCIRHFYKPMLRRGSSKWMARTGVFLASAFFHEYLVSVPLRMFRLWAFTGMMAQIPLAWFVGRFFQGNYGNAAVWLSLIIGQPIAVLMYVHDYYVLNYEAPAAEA
Assay: In vitro assay for inhibition of DGAT-1 activity (DGAT 1 Reduced Microsome Multidose Assay)
Conditions: Trial 1 Human IC50, Trial 1: as Trial 4 except microsomes at 25 μg/mL instead of 5 μg/mL; average where n > 1
pIC50: −log10 of the molar value.
Reported metric: pIC50

{"Compound": "Nc1ncnc2c1C(=O)N(c1ccc([C@H]3CC[C@H](CC(=O)N4CCNC(=O)CC4)CC3)cc1)CCO2 [Example 6AL]", "Reported metric": "pIC50", "Observed value": 6.98}
{"Compound": "CN(CC1COCCO1)C(=O)C[C@H]1CC[C@H](c2ccc(N3CCOc4ncnc(N)c4C3=O)cc2)CC1 (stereo partly shown) [Example 6AF]", "Reported metric": "pIC50", "Observed value": 7.08}
{"Compound": "COCC1CCN(C(=O)C[C@H]2CC[C@H](c3ccc(N4CCOc5ncnc(N)c5C4=O)cc3)CC2)CC1 [Example 6I]", "Reported metric": "pIC50", "Observed value": 7.24}
{"Compound": "CC(C)(C#N)c1ccc(N2CCOc3ncnc(N)c3C2=O)cc1 [Example 1F]", "Reported metric": "pIC50", "Observed value": 5.67}
{"Compound": "CC(c1cccnc1)N(C)C(=O)C[C@H]1CC[C@H](c2ccc(N3CCOc4ncnc(N)c4C3=O)cc2)CC1 (stereo partly shown) [Example 6AQ]", "Reported metric": "pIC50", "Observed value": 7.06}
{"Compound": "CC1(CO)CCCN(C(=O)C[C@H]2CC[C@H](c3ccc(N4CCOc5ncnc(N)c5C4=O)cc3)CC2)C1 (stereo partly shown) [Example 6AN]", "Reported metric": "pIC50", "Observed value": 7.15}
{"Compound": "Nc1ncnc2c1C(=O)N(c1ccc([C@H]3CC[C@H](CC(=O)N4CCC(F)(F)CC4)CC3)cc1)CCO2 [Example 6L]", "Reported metric": "pIC50", "Observed value": 6.98}
